Hello, the source for this data is patent US20210396761A1, in case you need it.

assayed.system: T1, HCMV pUL50, C-terminally fused to the HA epitope (pcDNA-UL50-HA, pHM2589) (human cytomegalovirus (HCMV) strain …, UniProt P16791 1-397)
T1 sequence: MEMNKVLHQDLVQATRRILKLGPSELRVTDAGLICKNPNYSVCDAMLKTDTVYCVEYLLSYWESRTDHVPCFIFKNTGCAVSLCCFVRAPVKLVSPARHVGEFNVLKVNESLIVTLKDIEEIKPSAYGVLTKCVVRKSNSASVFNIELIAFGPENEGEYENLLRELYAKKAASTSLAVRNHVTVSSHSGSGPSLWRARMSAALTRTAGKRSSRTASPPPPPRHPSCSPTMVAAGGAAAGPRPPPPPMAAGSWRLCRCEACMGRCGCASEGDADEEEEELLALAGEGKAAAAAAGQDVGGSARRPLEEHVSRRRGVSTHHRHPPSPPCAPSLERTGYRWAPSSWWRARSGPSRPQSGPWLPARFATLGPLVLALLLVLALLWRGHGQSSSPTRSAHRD
procedure.summary: coimmunoprecipitation, transiently transfected 293T cells

- binder: "HCMV pUL53, C-terminally fused to the Flag epitope (pcDNA-UL53-Flag, pHM2590) (other, also called pUL53-Flag; Flag-tagged pUL53) MSSVSGVRTPRERRSALRSLLRKRRQRELASKVASTVNGATSANNHGEPPSPADARPRLTLHDLHDIFREHPELELKYLNMMKMAITGKESICLPFNFHSHRQHTCLDISPYGNEQVSRIACTSCEDNRILPTASDAMVAFINQTSNIMKNRNFYYGFCKSSELLKLSTNQPPIFQIYYLLHAANHDIVPFMHAEDGRLHMHVIFENPDVHIPCDCITQMLTAAREDYSVTLNIVRDHVVISVLCHAVSASSVKIDVTILQRKIDEMDIPNDVSESFERYKELIQELCQSSGNNLYEEATSSYAIRSPLTASPLHVVSTNGCGPSSSSQSTPPHLHPPSQATQPHHYSHHQSQSQQHHHRPQSPPPPLFLNSIRAPDYKDDDDK"
  binding result: "binds"
